measurementTarget: T1, human Ig1,2 TrkA (recombinant D4-D5 domain of human TrkA receptor) (human, UniProt P04629 191-392)
T1 construct: also called hTrkA Ig1,2; TrkA Ig1,2
T1 chain: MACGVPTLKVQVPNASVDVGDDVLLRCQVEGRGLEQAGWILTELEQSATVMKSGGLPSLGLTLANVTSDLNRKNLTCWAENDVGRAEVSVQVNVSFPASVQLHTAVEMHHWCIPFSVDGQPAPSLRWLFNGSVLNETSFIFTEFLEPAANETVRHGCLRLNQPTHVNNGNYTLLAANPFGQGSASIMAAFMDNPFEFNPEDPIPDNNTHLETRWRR
assayNotes: SPR (Biacore X-100); scFv immobilised on CM5 chip, human Ig1,2 TrkA injected
# Kd per entry
parameter: Kd (nM)

binder="anti-TrkA scFv CRB0022 (scFv, From mSPLINT selection) scFv: DIVLTQSPALMSASPGEKVTMTCSASSSVSYMYWYQQKPRSSPKPWIYLTSNLASGVPARFSGSGSGTSYSLTISSMEAEDAATYYCQQWSSNPYTFGGRTRLEIKPSGGSTSGSGKPGSGEDSSGAQVQLQQSGAELVKPGASVELSCTASGFNIKDTYMHWVKQRPEQGLEWIGGIDPANGNTIYVPKFQGKATITADTSSNTAYLQLSSLTSEDTAVYYCARGGYDFDYAMDYWGQGTSVTVSS" reportedmeasurement=3.2
binder="anti-TrkA scFv CRB0036 (scFv, From mSPLINT selection) scFv: DIVMTQAAPSVPVTPGESVSISCRSSKSLLHSSGITSLYWYLQRPGQSPQLPIYRMSSLASGVPDRFSVSGSGTAFTLRISRVEAEDVGVYYCMQHLEYPLTFGAGTKLELKRSGGSTSGSGKPGSGEGSSGTQVQLQQSGAELLKPGASVKISCKATGYTFSNYWIEWVKQRPGHGLEWIGEILPGSGSAHYSEKFKDKATFTADTSSNTAYMQLSSLTSEDSAVYFCTRSPPNPGYWGQGTSVTVSS" reportedmeasurement=13.7
binder="anti-TrkA scFv CRB0084 (scFv, From hSPLINT_09 selection) scFv: QPVLTQPPSVSVAPRQTATITCGGNYIGSKSVHWYQQKPGQDPVLVVNDDSDRPSGIPERFSGSNSANTATLTISGVEAGDEADYYCQVWDSSTEPVVFGGGTKLTVLSGGSTSGSGKPGSGEGSSGTQVQLQQWGAGLLRPSETLSLTCTVSGGSFSDSYWTWIRQSPGKGLEWIGENNHRGSTNYSPTLRSRLSISIDSSKNQFSLKLSSVTAADTAVYYCARVPYRLRSRIFDVWGQGTMVTVSS" reportedmeasurement=1700
